# TARGET DESC: Menin-MLL interaction (Homo sapiens, UniProt O00255)
# Construct: GST-MENIN (1-615 aa) and FITC-MLL15-43 were diluted with an FP buffer
# Sequence (O00255 1-615 isoform O00255-1): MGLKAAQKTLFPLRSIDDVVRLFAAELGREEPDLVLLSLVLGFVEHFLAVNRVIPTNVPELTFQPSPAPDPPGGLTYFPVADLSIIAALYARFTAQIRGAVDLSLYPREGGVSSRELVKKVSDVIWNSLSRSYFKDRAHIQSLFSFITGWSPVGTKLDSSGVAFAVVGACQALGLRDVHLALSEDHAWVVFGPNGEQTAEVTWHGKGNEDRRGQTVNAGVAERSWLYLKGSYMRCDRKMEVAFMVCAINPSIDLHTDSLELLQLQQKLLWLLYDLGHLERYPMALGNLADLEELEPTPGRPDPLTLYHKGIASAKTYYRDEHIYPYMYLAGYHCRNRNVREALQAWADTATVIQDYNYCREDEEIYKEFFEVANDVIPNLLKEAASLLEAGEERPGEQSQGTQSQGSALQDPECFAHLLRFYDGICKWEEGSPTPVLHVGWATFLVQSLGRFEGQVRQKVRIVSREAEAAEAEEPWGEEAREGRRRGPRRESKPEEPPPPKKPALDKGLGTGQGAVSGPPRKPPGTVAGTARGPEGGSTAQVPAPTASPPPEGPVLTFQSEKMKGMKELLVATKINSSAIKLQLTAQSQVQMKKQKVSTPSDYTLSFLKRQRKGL
# PROTOCOL SUMMARY: Fluorescence polarization assay of Menin-MLL interaction
# EXPERIMENTAL SETUP: GST-MENIN (1-615 aa) 8 nM, FITC-MLL15-43 8 nM; read-out: IC50 (nM) for inhibitory activity against Menin-MLL protein binding
Listed here: items and their measured IC50.

Some solved entries appear below for comparison.
C=C1C[C@@H]2CC[C@H]1[C@@H](C(=O)N1CCC3(CC1)CN(c1ncnnc1Oc1ccc(F)cc1C(=O)N(C(C)C)C(C)C)C3)N2 [Compound 50]	< 50 nM
C=C1C[C@@H]2CC[C@H]1[C@@H](C(=O)N1CCC3(CC1)CN(c1ncnnc1Oc1ccc(F)cc1-c1cnccc1OC)C3)N2 [Compound 48]	< 50 nM

// sample C=C1C[C@@H]2CC[C@H]1[C@@H](C(=O)N1CCC3(CC1)CN(c1ncncc1Oc1ccc(F)cc1C(=O)N(CC)C(C)C)C3)N2 [Compound 2] , its IC50 was < 50 nM
